tested on: HeLa MZ; test: whole-cell filipin (free cholesterol) integrated intensity, Z-score; higher = more cholesterol staining; conditions: compound concentration in added solution (µM; 5 µl added to 20 µl cells): 10; 18 h
Counter-ions that a name gives are not always drawn.
observation type: whole-cell filipin (z-score)
// no unit, no text: just the number

Request: whole-cell filipin (z-score), test system HeLa MZ, entry CC(=O)OCC(=O)[C@@]1(OC(C)=O)[C@@H](C)C[C@H]2[C@@H]3C[C@H](F)C4=CC(=O)C=C[C@]4(C)[C@@]3(F)[C@@H](O)C[C@@]21C [Diflorasone Diacetate]
-0.816

Request: whole-cell filipin (z-score), test system HeLa MZ, entry CCCCCCC[N+](CC)(CC)CCCCc1ccc(Cl)cc1 [Clofilium tosylate]
-1.56

Request: whole-cell filipin (z-score), test system HeLa MZ, entry CCN(CC)CCNC(=O)c1cc(Br)c(N)cc1OC [Bromopride]
0.199

Request: whole-cell filipin (z-score), test system HeLa MZ, entry c1ccc2c(CC3=NCCN3)cccc2c1 [Naphazoline hydrochloride]
0.085

* * *

Could you please report measured filipin (z-score) for the items listed next?
tested on: HeLa MZ; assay: filipin (cholesterol) integrated intensity within LBPA endosomes, Z-score; higher = more cholesterol in LBPA endosomes; conditions: compound concentration in added solution (µM; 5 µl added to 20 µl cells): 10; 18 h
Where a name gives a salt, the structure may show the parent alone.
// no unit, no text: just the number

Value lookup for filipin (z-score); key = O=C(O)/C=C/c1ccc(Cn2ccnc2)cc1 [Ozagrel hydrochloride]
-0.0855

Value lookup for filipin (z-score); key = CN1CCC(=C2c3ccccc3CCc3sccc32)CC1 [Pizotifen malate]
1.53

Value lookup for filipin (z-score); key = CCN(CC)C(=O)N1CCN(C)CC1 [Diethylcarbamazine citrate]
-0.553

Value lookup for filipin (z-score); key = CCOC(=O)C1=C(C)NC(C)=C(C(=O)OC)C1c1cccc([N+](=O)[O-])c1 (stereo not drawn)
-0.297

Value lookup for filipin (z-score); key = CCCCCCC[N+](CC)(CC)CCCCc1ccc(Cl)cc1 [Clofilium tosylate]
-0.77

Value lookup for filipin (z-score); key = COc1c(N2CCNC(C)C2)c(F)cc2c(=O)c(C(=O)O)cn(C3CC3)c12 (stereo not drawn)
0.0101

Value lookup for filipin (z-score); key = COc1ccc2c(c1)c(CC(=O)OCC(=O)O)c(C)n2C(=O)c1ccc(Cl)cc1
-0.644

Value lookup for filipin (z-score); key = NNc1nncc2ccccc12 [Hydralazine hydrochloride]
-0.461

Value lookup for filipin (z-score); key = Cc1nccn1CC1CCc2c(c3ccccc3n2C)C1=O (stereo not drawn) [Ondansetron Hydrochloride]
0.186

Value lookup for filipin (z-score); key = CN(C)CCn1nnnc1SCC1=C(C(=O)O)N2C(=O)[C@@H](NC(=O)Cc3csc(N)n3)[C@H]2SC1 [Cefotiam hydrochloride]
-0.711

Value lookup for filipin (z-score); key = CCCCNc1ccc(C(=O)OCCN(C)C)cc1 [Tetraca? hydrochloride]
0.182

Value lookup for filipin (z-score); key = OCCOCCN1CCN(C2=Nc3ccccc3Sc3ccccc32)CC1
-0.0994

Value lookup for filipin (z-score); key = C[N+]1(C)CCC(=C(c2ccccc2)c2ccccc2)CC1 [Diphemanil methylsulfate]
-0.688

Value lookup for filipin (z-score); key = Cn1cnc2c1c(=O)[nH]c(=O)n2C
-0.483

Value lookup for filipin (z-score); key = C[C@H](N)[C@H](O)c1cccc(O)c1 [Metaraminol bitartrate]
-0.505

Value lookup for filipin (z-score); key = CC(Oc1ccccc1)C(=O)N[C@@H]1C(=O)N2[C@@H]1SC(C)(C)[C@@H]2C(=O)O (stereo partly drawn) [Phenethicillin potassium salt]
-0.525

Value lookup for filipin (z-score); key = CC(C)OC(=O)C(C)(C)Oc1ccc(C(=O)c2ccc(Cl)cc2)cc1 [Fenofibrate]
-0.631

Value lookup for filipin (z-score); key = CN1CCN2c3ncccc3Cc3ccccc3C2C1 (stereo not drawn)
0.392
